// values below are reported Fold IC50 vs H3/L3
# TESTED TARGET: T1, human CD30 (commercial, conjugated to digoxigenin) (human, UniProt P28908 19-379, limits assumed, conjugated to digoxigenin (DIG))
# T1 sequence (looked up): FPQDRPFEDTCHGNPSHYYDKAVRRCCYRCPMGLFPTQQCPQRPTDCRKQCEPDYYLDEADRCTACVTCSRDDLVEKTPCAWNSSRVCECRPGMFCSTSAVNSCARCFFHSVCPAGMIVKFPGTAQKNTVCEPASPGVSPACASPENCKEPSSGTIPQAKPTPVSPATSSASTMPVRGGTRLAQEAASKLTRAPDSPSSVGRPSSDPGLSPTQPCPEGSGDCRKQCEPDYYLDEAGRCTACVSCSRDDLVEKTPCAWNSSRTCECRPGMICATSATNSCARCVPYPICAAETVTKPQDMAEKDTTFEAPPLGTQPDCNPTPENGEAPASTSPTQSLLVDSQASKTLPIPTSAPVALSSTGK
# METHOD SUMMARY: AlphaScreen competition
QUANTITY KIND: Fold IC50 vs H3/L3 (fold)

>>> value("AC10 H3.12/L3 (antibody, IgG1, name in Kabat numbering, V domains shown) VH: QIQLVQSGPEVKKPGASVKVSCKASGYTFTDYWITWVRQAPGQGLEWMGWIYPGSGNTKYNEKFQGRFVFSVDTSASTAYLQISSLKAEDTAVYFCANYGNYWFAYWGQGTLVTVSS VL: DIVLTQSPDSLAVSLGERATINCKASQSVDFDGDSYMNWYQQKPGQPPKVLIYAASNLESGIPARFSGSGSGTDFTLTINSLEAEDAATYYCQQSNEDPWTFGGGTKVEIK")
0
>>> value("AC10 H3.60/L3 (antibody, IgG1, name in Kabat numbering, V domains shown) VH: QIQLVQSGPEVKKPGASVKVSCKASGYTFTDYYITWVRQAPGQGLEWMGWIYPGSGNTKYNEKFQGRFVFSVDTSASTAYLQISSLKAEDTAVYFCANYGNYWFASWGQGTLVTVSS VL: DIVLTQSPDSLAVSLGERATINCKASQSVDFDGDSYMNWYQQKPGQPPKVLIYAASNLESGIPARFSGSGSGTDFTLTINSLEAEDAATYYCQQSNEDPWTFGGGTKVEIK")
0.82
>>> value("AC10 H3.37/L3 (antibody, IgG1, name in Kabat numbering, V domains shown) VH: QIQLVQSGPEVKKPGASVKVSCKASGYTFTDYYITWVRQAPGQGLEWMGWIYPGSGNTKYTEKFQGRFVFSVDTSASTAYLQISSLKAEDTAVYFCANYGNYWFAYWGQGTLVTVSS VL: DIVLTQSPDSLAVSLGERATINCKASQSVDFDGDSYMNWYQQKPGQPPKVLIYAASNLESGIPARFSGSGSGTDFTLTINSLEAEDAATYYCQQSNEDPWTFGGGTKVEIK")
1.01
>>> value("AC10 H3.38/L3 (antibody, IgG1, name in Kabat numbering, V domains shown) VH: QIQLVQSGPEVKKPGASVKVSCKASGYTFTDYYITWVRQAPGQGLEWMGWIYPGSGNTKYVEKFQGRFVFSVDTSASTAYLQISSLKAEDTAVYFCANYGNYWFAYWGQGTLVTVSS VL: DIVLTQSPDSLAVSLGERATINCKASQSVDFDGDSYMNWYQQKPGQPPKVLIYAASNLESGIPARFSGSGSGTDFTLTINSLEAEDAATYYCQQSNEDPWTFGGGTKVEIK")
1.14
>>> value("AC10 H3.22/L3 (antibody, IgG1, name in Kabat numbering, V domains shown) VH: QIQLVQSGPEVKKPGASVKVSCKASGYTFTDYYITWVRQAPGQGLEWMGIIYPGSGNTKYNEKFQGRFVFSVDTSASTAYLQISSLKAEDTAVYFCANYGNYWFAYWGQGTLVTVSS VL: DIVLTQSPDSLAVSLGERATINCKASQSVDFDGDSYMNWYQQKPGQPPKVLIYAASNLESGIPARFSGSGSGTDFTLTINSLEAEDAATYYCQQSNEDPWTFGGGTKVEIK")
0.01
